Reported MCC values are given for each entry in this list.
# Tested on: HEL
# protocolNotes: Minimum cytotoxic concentration against HEL cell morphology.
# Format: functional
# cond: Homo sapiens

Solved entries:
Nc1nc2c(ncn2COCCO)c(=O)[nH]1 :: > 50 µg/mL
Nc1nc2c(ncn2COC(CO)CO)c(=O)[nH]1 :: > 50 µg/mL
O=c1[nH]c(=O)n([C@H]2C[C@H](O)[C@@H](CO)O2)cc1/C=C/Br :: > 50 µg/mL

Okay, next one:
Kindly state the measured MCC obtained for Nc1ccn(C[C@@H](CO)OCP(=O)(O)O)c(=O)n1.O.O with HEL.
> 50 µg/mL

====

# Tested on: HEL
# protocolNotes: Cytotoxic concentration reducing HEL cell growth by 50%.
# Assay type: functional
# cond: Homo sapiens
CC50 reference

Previously resolved entries follow.
Nc1nc2c(ncn2COC(CO)CO)c(=O)[nH]1 :: > 50 mg/L
O=c1[nH]c(=O)n([C@H]2C[C@H](O)[C@@H](CO)O2)cc1/C=C/Br :: > 200 mg/L
Nc1nc2c(ncn2COCCO)c(=O)[nH]1 :: > 200 mg/L

Record request: CC50 value, item Nc1ccn(C[C@@H](CO)OCP(=O)(O)O)c(=O)n1.O.O
> 50 mg/L
